B1: PI4K2A (parent)
chain: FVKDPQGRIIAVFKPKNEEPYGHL

Variants of: B1
experiment description: protein stability index of a GFP-peptide fusion (GPS, HEK-293T) (PSI 1-6); higher = more stable;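 also: lentivirally expressed fusions sorted by FACS into six bins by GFP to DsRed ratio, PSI derived from sequencing read proportions per bin multiplied by bin number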
study conditions: c terminus: a fixed tail appended
// reported protein stability index for each item listed
endpoint name: protein stability index

item sequence: FVKDPQGRIIAVFKPKNEEPFGHL [Y21F]
endpoint name: protein stability index
observed measurement: 2.21
//
item sequence: FVKDPQGRIIAVFKPTNEEPYGHL [K16T]
endpoint name: protein stability index
observed measurement: 1.42
//
item sequence: FVKDPQGRIIAVFKPKNELPYGHL [E19L]
endpoint name: protein stability index
observed measurement: 2.34
//
item sequence: FVKDPQVRIIAVFKPKNEEPYGHL [G7V]
endpoint name: protein stability index
observed measurement: 1.73
//
item sequence: FVKDPQGRIIAVFKPKNEEPKGHL [Y21K]
endpoint name: protein stability index
observed measurement: 2.04
//
item sequence: FVKDPQGKIIAVFKPKNEEPYGHL [R8K]
endpoint name: protein stability index
observed measurement: 1.61
//
item sequence: FVKYPQGRIIAVFKPKNEEPYGHL [D4Y]
endpoint name: protein stability index
observed measurement: 2.06
//
item sequence: FVKDPQGRIIAVFKPKNEEPYLHL [G22L]
endpoint name: protein stability index
observed measurement: 2.03
//
item sequence: FVKDPQGRIIAVFKPKNEEPYYHL [G22Y]
endpoint name: protein stability index
observed measurement: 1.48
//
item sequence: FVKDPQGRIIAVFKPKNEEPAGHL [Y21A]
endpoint name: protein stability index
observed measurement: 1.57
//
item sequence: FEKDPQGRIIAVFKPKNEEPYGHL [V2E]
endpoint name: protein stability index
observed measurement: 3.33
//
item sequence: SVKDPQGRIIAVFKPKNEEPYGHL [F1S]
endpoint name: protein stability index
observed measurement: 2.76
//
item sequence: FVKDPQGRIIAVFKPPNEEPYGHL [K16P]
endpoint name: protein stability index
observed measurement: 1.7
//
item sequence: FVKDPRGRIIAVFKPKNEEPYGHL [Q6R]
endpoint name: protein stability index
observed measurement: 1.49
//
item sequence: FVKDPQGRIIAVFKPKNEEPYGVL [H23V]
endpoint name: protein stability index
observed measurement: 2.28
//
item sequence: FVKDPQGRIIAVFKPKNEEPQGHL [Y21Q]
endpoint name: protein stability index
observed measurement: 2.53
//
item sequence: FVKDPQGRIIAVFKPKNEEPYGML [H23M]
endpoint name: protein stability index
observed measurement: 1.87
//
item sequence: FVKDPQGRIIAVFKAKNEEPYGHL [P15A]
endpoint name: protein stability index
observed measurement: 2.18
//
item sequence: FVKDPQGRIIADFKPKNEEPYGHL [V12D]
endpoint name: protein stability index
observed measurement: 1.56
//
item sequence: FVKDPQGRIIAVFKPKNKEPYGHL [E18K]
endpoint name: protein stability index
observed measurement: 2.04
//
item sequence: FVKDPQGRIIAVFKPWNEEPYGHL [K16W]
endpoint name: protein stability index
observed measurement: 2.23
//
item sequence: FVKDPQGRIIAVFKPKNEERYGHL [P20R]
endpoint name: protein stability index
observed measurement: 1.7
